Reference source for all entries: the supplement of paper PMC10567573

B1: ZNF207 (parent)
chain: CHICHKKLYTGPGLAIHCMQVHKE

- Variants of: B1
- TEST: protein stability index of a GFP-peptide fusion (GPS, HEK-293T) (PSI 1-6); higher = more stable;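 also: lentivirally expressed fusions sorted by FACS into six bins by GFP to DsRed ratio, PSI derived from sequencing read proportions per bin multiplied by bin number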
- REPORTED CONDITIONS: c terminus: a fixed tail appended
REPORTED METRIC: protein stability index
Just the number, please, no unit attached.

Lookup: Report measured protein stability index; entry is P12M
Found: 3.24

Lookup: For the variant H22R , give its measured protein stability index value.
Found: 2.11

Lookup: Quote protein stability index reported for A15F please.
Found: 2.91
